# Kd per record follows
biological target: T1, FAM-labeled Trf4p NIM peptide; test: fluorescence anisotropy (FA) equilibrium binding; conditions: chain shown with the change
T1 chain: DDDEDGYNPYTL
Just the number in µM, nothing appended.

// solved cases for Kd follow
Nrd1p CID (residues 1-153), P53617 R28D (protein) MQQDDDFQNFVATLESFKDLKSGISGSDIKKLTTYALDHIDIESKIISLIIDYSRLCPDSHKLGSLYIIDSIGRAYLDETRSNSNSSSNKPGTCAHAINTLGEVIQELLSDAIAKSNQDHKEKIRMLLDIWDRSGLFQKSYLNAIRSKCFAMD = 96.9
Nrd1p CID (residues 1-153), P53617 L20D (protein) MQQDDDFQNFVATLESFKDDKSGISGSRIKKLTTYALDHIDIESKIISLIIDYSRLCPDSHKLGSLYIIDSIGRAYLDETRSNSNSSSNKPGTCAHAINTLGEVIQELLSDAIAKSNQDHKEKIRMLLDIWDRSGLFQKSYLNAIRSKCFAMD = 44.9
Nrd1p CID (residues 1-153), P53617 I130K (protein) MQQDDDFQNFVATLESFKDLKSGISGSRIKKLTTYALDHIDIESKIISLIIDYSRLCPDSHKLGSLYIIDSIGRAYLDETRSNSNSSSNKPGTCAHAINTLGEVIQELLSDAIAKSNQDHKEKIRMLLDKWDRSGLFQKSYLNAIRSKCFAMD = 20.7

Please examine the following record next.
Request: What does the record list as Kd for Nrd1p CID (residues 1-153), P53617 D70A (protein) MQQDDDFQNFVATLESFKDLKSGISGSRIKKLTTYALDHIDIESKIISLIIDYSRLCPDSHKLGSLYIIASIGRAYLDETRSNSNSSSNKPGTCAHAINTLGEVIQELLSDAIAKSNQDHKEKIRMLLDIWDRSGLFQKSYLNAIRSKCFAMD ?
Result: 39.8
